Ref: ChEMBL document CHEMBL1153730

Test system: Pseudomonas agarici
assayDetails: Antibacterial activity against Pseudomonas agarici by agar well diffusion method
Format: functional
Active and inactive are the calls of the source. The rule behind the calls is not given here.
reportedEndpoint: Activity

Use these answered entries as a reference point.
Fill in the blank: the reported Activity of `COc1cc2c(c(OC)c1OC)[C@H](OC)C[C@@H](c1ccccc1)O2` is ____. inactive

Fill in the blank: the reported Activity of `CCCCCCCCCCCCCCC(=O)OC[C@@H](O)CO` is ____. inactive

Fill in the blank: the reported Activity of COc1cc2c(c(O)c1OC)[C@H](O[C@@H]1C[C@@H](c3ccccc3)Oc3cc(OC)c(OC)c(OC)c31)C[C@@H](c1ccccc1)O2 [BEILSCHMIEFLAVONOID B] is ____. inactive

Fill in the blank: the reported Activity of `O=C(/C=C/c1ccccc1)NCCc1ccc2c(c1)OCO2` is ____. inactive

Fill in the blank: the reported Activity of `COc1cc2c(c(OC)c1OC)[C@H](O)C[C@@H](c1ccccc1)O2` is ____. inactive

Further cases:
Fill in the blank: the reported Activity of `COc1cc2c(c(OC)c1OC)[C@H](O[C@@H]1C[C@@H](c3ccccc3)Oc3cc(OC)c(OC)c(OC)c31)C[C@@H](c1ccccc1)O2` is ____. inactive

Fill in the blank: the reported Activity of COc1cc(O)c2c(c1OC)OC(c1ccccc1)CC2=O (stereo not drawn) is ____. inactive

Fill in the blank: the reported Activity of C=C(C)[C@@H]1CC[C@]2(C(=O)O)CC[C@]3(C)[C@H](CC[C@@H]4[C@@]5(C)CC[C@H](O)C(C)(C)[C@@H]5CC[C@]43C)[C@@H]12 [BETULINIC ACID] is ____. inactive
